system name: T1, human GITR (human, UniProt Q9Y5U5 26-241)
T1 construct: also called TNFRSF18; Glucocorticoid-induced TNFR-related gene
T1 sequence: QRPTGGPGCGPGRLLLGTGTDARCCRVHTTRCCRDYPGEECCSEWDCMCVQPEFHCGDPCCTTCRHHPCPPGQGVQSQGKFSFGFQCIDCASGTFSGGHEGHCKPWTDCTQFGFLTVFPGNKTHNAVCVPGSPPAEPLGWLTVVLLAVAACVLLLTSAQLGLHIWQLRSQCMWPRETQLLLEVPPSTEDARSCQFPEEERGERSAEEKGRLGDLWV
run description: flow cytometry on activated human T cells
property name: EC50 (µg/mL)
State the answer as a number, implicitly in µg/mL.

{"columns": ["binder", "unit name", "EC50"],
 "data": [
  ["9H6v5 (antibody, human IgG1, kappa, V domains shown, Engineered variant; also called Ab48; SS-16946) VH: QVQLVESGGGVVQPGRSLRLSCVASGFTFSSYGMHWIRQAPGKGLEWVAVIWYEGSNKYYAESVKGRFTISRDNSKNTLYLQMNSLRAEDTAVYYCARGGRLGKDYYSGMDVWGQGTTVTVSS VL: DIQMTQSPSSLSASVGDRVTITCRASQGIRNDLGWYQQKPGKAPKLLIYATSSLQSGVPSRFSGSGSGTEFTLTISSLQPEDFATYYCLQHNTYPWTFGQGTKVEIKR", "µg/mL", 0.38],
  ["9H6v1 (antibody, human IgG1, kappa, V domains shown, Engineered variant; also called Ab44; SS-16943) VH: QVQLVESGGGVVQPGRSLRLSCVASGFTFSSYGMHWIRQAPGKGLEWVAVIWYEGSNKYYADSVKGRFTISRDNSKNTLYLQMNSLRAEDTAVYYCARGGRLGKDYYSGMDVWGQGTTVTVSS VL: DIQMTQSPSSLSASVGDRVTITCRASQGIRNDLGWYQQKPGKAPKRLIYATSSLQSGVPSRFSGSGSGTEFTLTISSLQPEDFATYYCLQHNTYPWTFGQGTKVEIKR", "µg/mL", 0.144],
  ["41G5v4 (antibody, human IgG1, kappa, V domains shown, Engineered variant; also called Ab58; SS-16954) VH: QVQLVESGGGVVQPGRSLRLSCAASGFTFSSYGMHWVRQAPGKGLEWVAVIWYPGSNKYYAESVKGRFTISRDNSKNTLYLQMNSLRAEDTAVYYCARGGELGRYYYYGMDVWGQGTTVTVSS VL: DIQMTQSPSSLSASVGDRVTVTCRASQGIRNDLGWYQQKPGKAPKLLIYAASSLQSGVPSRFSGSGSGTEFTLTISSLQPEDFATYYCLQHNNYPWTFGQGTKVDIKR", "µg/mL", 0.068]
]}

If you can, please state the reported EC50 value of 5H7v18 (antibody, human IgG1, kappa, V domains shown, Engineered variant; also called Ab36; SS-16928) VH: QVQLQESGPGLVKPSETLSLTCTVSGGSISSGGYFWSWIRQPPGKGLEWIGYIYYSGTTYYNPSLKSRVTISIDTSKNQFSLKLSSVTAADTAVYYCARDLFYYDSSGPRGFEPWGQGTLVTVSS VL: EIVLTQSPGTLSLSPGERATLSCRASQTVSSNYLAWYQQKPGQAPRLLIYGSSTRATGIPDRFSGSGSGTDFTLTISRLEPEDFAVYYCQQYDTSPWTFGQGTKVEIKR . 0.804

If you can, please state the reported EC50 value of 5H7v2 (antibody, human IgG1, kappa, V domains shown, Engineered variant; also called Ab26; SS-13807) VH: QVQLQESGPGLVKPSETLSLTCTVSGGSISSGGYFWSWIRQPPGKGLEWIGYIYYSGTTYYNPSLKSRVTISIDTSKNQFSLKLSSVTAADTAVYYCARDLFYYDTSGPRGFDPWGQGTLVTVSS VL: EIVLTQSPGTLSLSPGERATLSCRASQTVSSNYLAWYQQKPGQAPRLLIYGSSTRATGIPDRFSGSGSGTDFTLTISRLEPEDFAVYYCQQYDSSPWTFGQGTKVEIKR . 0.279
